target: Alpha-2C adrenergic receptor (Homo sapiens) (UniProt P18825); experiment: compounds altering alpha2C-coupled GIRK flux – cell-based, HEK293 alpha2C/GIRK1/2, thallium flux, primary screen (AID 624); conditions: thallium flux BTC fluorescence, at 10 µM, actives lie on both sides;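 also: slope of fluorescence ratio to pre-addition baseline per second over 15 to 24 s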
Sequence (P18825 whole entry, looked up): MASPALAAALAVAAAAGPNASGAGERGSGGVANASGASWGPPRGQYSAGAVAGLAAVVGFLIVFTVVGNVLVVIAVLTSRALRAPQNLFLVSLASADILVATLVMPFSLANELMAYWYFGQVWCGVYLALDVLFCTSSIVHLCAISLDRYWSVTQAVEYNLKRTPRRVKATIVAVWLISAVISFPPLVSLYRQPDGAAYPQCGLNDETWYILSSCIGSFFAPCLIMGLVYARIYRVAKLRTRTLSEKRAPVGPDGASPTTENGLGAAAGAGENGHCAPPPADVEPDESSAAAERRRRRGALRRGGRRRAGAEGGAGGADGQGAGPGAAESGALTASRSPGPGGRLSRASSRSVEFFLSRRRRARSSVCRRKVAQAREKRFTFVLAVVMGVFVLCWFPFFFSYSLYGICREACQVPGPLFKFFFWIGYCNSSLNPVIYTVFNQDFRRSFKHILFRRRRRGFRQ
measure name: slope
Answers are plain numbers.

Here are 5 molecules together with their reported answers.
> print(dat)
                                   molecule  measure.name  endpoint.result
1                       CNC(=O)NCCN1CCCC1=O         slope          0.00479
2               Cc1[nH]c2c(C)cccc2c(=O)c1Br         slope           0.0031
3  COc1ccc(CCNc2oc(Cc3cccc4ccccc34)nc2C#N)cc1OC         slope          0.00516
4  CC(C)CNS(=O)(=O)c1ccc(CCC(=O)NCc2ccco2)cc1         slope          0.00549
5  CCOC(=O)C1=C(C)NC(=O)NC1c1ccc(Br)s1 (centres undefined)         slope          0.00543

Batch request: slope per item, same order as input.
1. CCc1ccc(C2CC(c3cccc(OC)c3)n3nc(N)nc3N2)cc1 (centres undefined)
2. CC(C)(C)c1ccc(OCC(=O)O)cc1
3. CC(C)(C)C(=O)OCC1OC(n2cnc(C(N)=O)n2)C(O)C1O (centres undefined)

[0.00641, 0.00377, 0.00529]

* * *

target: Alpha-2C adrenergic receptor (Homo sapiens); test: compounds altering alpha2C-coupled GIRK flux – cell-based, HEK293 alpha2C/GIRK1/2, thallium flux, primary screen (AID 624); conditions: thallium flux BTC fluorescence, at 10 µM, actives lie on both sides;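 also: slope of fluorescence ratio to pre-addition baseline per second over 15 to 24 s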
Binary call on slope: T from 0.006 upward, F beneath that.

# example entries with known answers
> print(dat)
                                   compound  assigned.category
1  Cc1ccc(-c2nnc3c4ccccc4c(C)nn23)cc1S(=O)(=O)N1CCN(C)CC1                  F
2  CC(=O)c1ccc(OCC(O)CN2CCN(Cc3ccc4c(c3)OCO4)CC2)cc1 (stereo not drawn)                  T
3  CCOc1ccc(N(CC(=O)Nc2ccc(F)c(F)c2)S(=O)(=O)c2c(C)noc2C)cc1                  T
4       COc1ccc(-c2cc(N3CCCC3)n3ncnc3n2)cc1                  F

# check: slope of "CSc1nc2ccc(S(=O)(=O)N3CCOCC3)cc2s1" is greater than or equal to 0.006
F

Determine whether measured slope meets or exceeds 0.006 for "CCCCn1c(SCC(=O)NCc2ccccc2)nc2ccc(N3CCOCC3)cc2c1=O"
F

slope >= 0.006 for "O=C(CSc1ncn[nH]1)c1ccco1" ?
F

Reported slope at or above 0.006? CC(=O)C1=C(O)C(=O)N(C2CCCCC2)C1c1ccccc1 (stereo not drawn)
F

Given "CCOC(=O)c1cc(-c2ccccc2)sc1N" , state whether its slope is at least 0.006.
F

Decide: is the reported value of slope for "CCOC(=O)c1sc2nc(NC(=O)COc3ccccc3)sc2c1C" equal to or greater than 0.006?
T

* * *

assay: reduction of polyQ htt aggregates in cells – imaging, exon1htt(103Q)mCFP cells, high-content imaging, primary screen (AID 483); details: exon1htt(103Q)mCFP cell line, aggregate imaging, at 2 µM; measured here: cell count, toxicity;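 also: compound exposure lasted 3 days before fixation; percent of the per-plate median nuclei count of sample wells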
measure name: nuclei count
Please don't drop the unit; write it after the number.

> print(dat)
                        compound  endpoint.result
1  Cc1cc(C(=O)O)ccc1-n1c(C)ccc1C             106%

Could I get nuclei count for every one of these entries?
1. C/C(NC1CCCC1)=C(/C#N)C(N)=O
2. O=C(O)CCCc1nc(-c2ccccc2)no1
3. Cc1nc2ccc(C(=O)O)cc2c2c1CC(C)S2 (configuration not stated)
4. O=C1c2oc3ccccc3c(=O)c2C(c2cccnc2)N1Cc1ccco1 (configuration not stated)
5. COc1cccc(CNC(=O)C2CCN(c3cnccn3)CC2)c1
6. O=C1c2ccccc2C(Nc2ccc(F)cc2F)N1CCN1CCOCC1 (configuration not stated)
7. CCOC(=O)N1CCN(c2cc3nccnc3cc2F)CC1
8. COc1ccc(OC)c(C(=O)c2nc3c(n2O)CCCCC3)c1

108%
91.6%
106%
110%
98.8%
101%
113%
114%

Please go through the list and note nuclei count for each compound.
1. Cc1ccc(S(=O)(=O)N2CCCC(c3nnc4n3-c3ccccc3SC4)C2)cc1 (configuration not stated)
2. CCCCn1c(CN2CCN(c3ccc(F)cc3)CC2)nc2c1c(=O)n(C)c(=O)n2C
3. O=C(OCC#CCSc1nnc(-c2ccncc2)o1)c1cccs1

1. 95.7%
2. 90.1%
3. 104%
